- Test system: Enterococcus faecium
- METHOD NOTES: Minimum inhibitory concentration against vancomycin sensitive Enterococci faecium L568 strain was determined
- Type: functional
- APPLIED CONDITIONS: Enterococcus faecium; read-out: MIC
MEASURED ATTRIBUTE: MIC (µg/mL)
Kindly answer with a numeric value in µg/mL, unit omitted.

Past entries and their recorded results:
CC(=O)N[C@@H]1[C@H](Oc2c3cc4cc2Oc2ccc(cc2Cl)[C@@H](O[C@@H]2O[C@@H](CO)[C@@H](O)[C@H](O)[C@@H]2NC(C)=O)[C@@H]2NC(=O)[C@H](NC(=O)[C@@H]4NC(=O)[C@H]4NC(=O)[C@@H](Cc5ccc(c(Cl)c5)O3)NC(=O)[C@H](N)c3ccc(O)c(c3)Oc3cc(O)cc4c3)c3ccc(O)c(c3)-c3c(O[C@H]4O[C@H](CO)[C@@H](O)[C@@H](O)[C@@H]4O)cc(O)cc3[C@@H](C(=O)O)NC2=O)O[C@@H](CO)[C@@H](O)[C@@H]1O    0.5
CCCCCCCCCCCNC(=O)N[C@@H](C(=O)O)C1NC(=O)[C@H](Cc2ccccc2)NC(=O)[C@H](NC(=O)[C@H](N)CC(C)C)Cc2ccc(c([N+](=O)[O-])c2)Oc2cc1cc(OC1OC(O)C(O)C(O)C1NC(=O)CCCCCCCCCCC)c2OC.Cl (some centres undefined)    256

Next, consider the following compound.
Requested field: MIC. Item: CCCCCCCCCCCNC(=O)N[C@@H](C(=O)O)C1NC(=O)[C@H](Cc2ccccc2)NC(=O)[C@H](N)Cc2ccc(c([N+](=O)[O-])c2)Oc2cc1cc(O)c2OC.Cl (some centres undefined)
128

---

- Tested on: Staphylococcus aureus
- METHOD NOTES: Minimum inhibitory concentration against Staphylococcus aureus L613 strain was determined
Starred links: 1 amine or outer side, 2 acyl side, 3 side chain; linkers in the order of their positions; H or OH if unused. Positions of bridges follow the written chain, without caps; N, C: chain ends. Non-standard residues stand in square brackets, D forms with d. Residues, ends and D or L forms follow the SMILES beside them. *: point of attachment. X1 = O=C1C[C@@H](C(=O)[*:2])N([*:1])C[C@H]1CS[C@@H]1CN2CCC1CC2; NMePhe(4-NMe2) = CN[C@@H](Cc1ccc(N(C)C)cc1)C(=O)O; Picolinoyl(3-OH) = O=C(c1ncccc1O)*; Phg = N[C@H](C(=O)O)c1ccccc1; dAbu = CC[C@@H](N)C(=O)O
MEASURED ATTRIBUTE: MIC

API: value(readout= MIC, system= Staphylococcus aureus, query= CCN(CC)CCS(=O)(=O)[C@@H]1CCN2C(=O)c3coc(n3)CC(=O)C[C@H](O)/C=C(C)/C=C/CNC(=O)/C=C/[C@@H](C)[C@@H](C(C)C)OC(=O)[C@@H]12.CC[C@H]1NC(=O)[C@@H](NC(=O)c2ncccc2O)[C@@H](C)OC(=O)[C@H](c2ccccc2)NC(=O)[C@@H]2CC(=O)[C@H](CS[C@@H]3CN4CCC3CC4)CN2C(=O)[C@H](Cc2ccc(N(C)C)cc2)N(C)C(=O)[C@@H]2CCCN2C1=O [QUINUPRISTIN/DALFOPRISTIN] ({Picolinoyl(3-OH)}-T[dAbu]P[NMePhe(4-NMe2)][X1][Phg]; ester 1-C) )
1 µg/mL

Data origin, for the record: ChEMBL document CHEMBL1144297
